Numbers sourced from the supplement of paper PMC10307832.

system: UMC-11; assay: relative viability (nuclei count vs DMSO), 5 days (fraction); higher = more cells survive; conditions: first compound 4 µM
Measured property: relative viability
Give only the figure.

Below, each entry is followed by its recorded relative viability result.
[[record]]
molecule = "Cc1sc2c(c1C)C(c1ccc(Cl)cc1)=N[C@@H](CC(=O)OC(C)(C)C)c1nnc(C)n1-2 [JQ1] + O=C(c1cc(Cc2n[nH]c(=O)c3ccccc23)ccc1F)N1CCN(C(=O)C2CC2)CC1 [Olaparib] (partner 8 µM)"
tgt = "UMC-11"
measured_property = "relative viability"
recorded_result = 0.0941

[[record]]
molecule = "Cc1sc2c(c1C)C(c1ccc(Cl)cc1)=N[C@@H](CC(=O)OC(C)(C)C)c1nnc(C)n1-2 [JQ1] + Nc1nc2[nH]cc(CCc3ccc(C(=O)N[C@@H](CCC(=O)O)C(=O)O)cc3)c2c(=O)[nH]1 [Pemetrexed] (partner 0.2 µM)"
tgt = "UMC-11"
measured_property = "relative viability"
recorded_result = 0.193

[[record]]
molecule = "Cc1sc2c(c1C)C(c1ccc(Cl)cc1)=N[C@@H](CC(=O)OC(C)(C)C)c1nnc(C)n1-2 [JQ1] + COc1cc2c(Oc3ccc(NC(=O)C4(C(=O)Nc5ccc(F)cc5)CC4)cc3F)ccnc2cc1OCCCN1CCOCC1 [Foretinib] (partner 0.25 µM)"
tgt = "UMC-11"
measured_property = "relative viability"
recorded_result = 0.238


Enquiry: Entry Cc1sc2c(c1C)C(c1ccc(Cl)cc1)=N[C@@H](CC(=O)OC(C)(C)C)c1nnc(C)n1-2 [JQ1] + CC(C)C[C@H](NC(=O)[C@H](Cc1ccccc1)NC(=O)c1cnccn1)B(O)O [Bortezomib] (partner 0.002 µM) needs its relative viability filled in; supply it.
Return: 0.136

Enquiry: Entry Cc1sc2c(c1C)C(c1ccc(Cl)cc1)=N[C@@H](CC(=O)OC(C)(C)C)c1nnc(C)n1-2 [JQ1] + N=C(N)NC(=N)NCCc1ccccc1 [Phenformin] (partner 250 µM) needs its relative viability filled in; supply it.
Return: 0.195

Enquiry: Entry Cc1sc2c(c1C)C(c1ccc(Cl)cc1)=N[C@@H](CC(=O)OC(C)(C)C)c1nnc(C)n1-2 [JQ1] + Cc1nc(NC(=O)N2CCC[C@H]2C(N)=O)sc1-c1ccnc(C(C)(C)C(F)(F)F)c1 [Alpelisib] (partner 2 µM) needs its relative viability filled in; supply it.
Return: 0.158

Enquiry: Entry Cc1sc2c(c1C)C(c1ccc(Cl)cc1)=N[C@@H](CC(=O)OC(C)(C)C)c1nnc(C)n1-2 [JQ1] + CS(=O)(=O)N1CCN(Cc2cc3nc(-c4cccc5[nH]ncc45)nc(N4CCOCC4)c3s2)CC1 [Pictilisib] (partner 1 µM) needs its relative viability filled in; supply it.
Return: 0.192
